Reference source: the supplement of paper PMC4862054

- Test system: HCC1599
- test: normalised viability (% of control), CellTiter-Blue; higher = more viable cells (100 = DMSO, 0 = benzethonium chloride kill control)
- reported conditions: incubation time: 72 h
Recorded normalised viability by entry
Answer in %, number only, no unit symbol.

Cc1cc2c(F)c(Oc3ncnn4cc(OC[C@@H](C)O)c(C)c34)ccc2[nH]1 [Brivanib] (0.1 nM) ... 96
Cn1nnc2c(C(N)=O)ncn2c1=O [Temozolomide] (1 nM) ... 109
NC(=O)c1cccc2cn(-c3ccc([C@@H]4CCCNC4)cc3)nc12 [MK-4827] (1 nM) ... 97.1

I would be grateful if you could share the reported normalised viability for C[C@]12C=CC(=O)C=C1CC[C@@H]1[C@@H]2C(=O)C[C@@]2(C)[C@H]1CC[C@]2(O)C(=O)CO [Prednisone] (1 nM) .
113

----------
- Test system: CAL-51
- test: normalised viability (% of control), CellTiter-Blue; higher = more viable cells (about 100 = DMSO control)
- reported conditions: 3 nM; incubation time: 72 h
Recorded normalised viability by entry
Answer in %, number only, no unit symbol.

Solved entries:
O=C(O)CC[C@H]1CC[C@@](c2cc(F)ccc2F)(S(=O)(=O)c2ccc(Cl)cc2)CC1 ... 101
Cc1c(C(=O)Nc2ccc(N3C[C@@H](C)O[C@@H](C)C3)nc2)cccc1-c1ccc(OC(F)(F)F)cc1 ... 105
CC(C)C(=O)Nc1ccc([N+](=O)[O-])c(C(F)(F)F)c1 [Flutamide] ... 118
C[C@@H](CN1CC(=O)NC(=O)C1)N1CC(=O)NC(=O)C1 ... 93.9
CCN(CC)CCOc1ccc(C(=C(Cl)c2ccccc2)c2ccccc2)cc1 ... 95.6
CC[C@@H]1C(=O)N(C)c2cnc(Nc3ccc(C(=O)N[C@H]4CC[C@H](N5CCN(CC6CC6)CC5)CC4)cc3OC)nc2N1C(C)C ... 99.8

Consider now this further compound.
I would be grateful if you could share the reported normalised viability for O=C(c1cc(Cc2n[nH]c(=O)c3ccccc23)ccc1F)N1CCN(C(=O)C2CC2)CC1 .
107

----------
- Tested on: CAL-85-1
- test: drug sensitivity score (DSS), CellTiter-Blue viability (DSS (AUC-based score)); higher = stronger viability inhibition; extreme values may be limits of the assay
- reported conditions: incubation time: 72 h
Recorded drug sensitivity score by entry
Answer with a number only.

I would be grateful if you could share the reported drug sensitivity score for CO[C@H]1C[C@@H]2CC[C@@H](C)[C@@](O)(O2)C(=O)C(=O)N2CCCC[C@H]2C(=O)O[C@H]([C@H](C)C[C@@H]2CC[C@@H](O)[C@H](OC)C2)CC(=O)[C@H](C)/C=C(\C)[C@@H](O)[C@@H](OC)C(=O)[C@H](C)C[C@H](C)/C=C/C=C/C=C/1C .
17

I would be grateful if you could share the reported drug sensitivity score for COc1cc2c(Oc3ccc(NC(=O)C4(C(=O)Nc5ccc(F)cc5)CC4)cc3F)ccnc2cc1OCCCN1CCOCC1 .
0

I would be grateful if you could share the reported drug sensitivity score for CN1CCN(c2nc(C3=C(c4c[nH]c5ccccc45)C(=O)NC3=O)c3ccccc3n2)CC1 .
0

----------
- Test system: DU-4475
- test: normalised viability (% of control), CellTiter-Blue; higher = more viable cells (about 100 = DMSO control)
- reported conditions: 3 nM; incubation time: 72 h
measured metric: normalised viability
Number first, unit second: that is the form wanted.

Solved entries:
C[C@]12C=CC(=O)C=C1CC[C@@H]1[C@@H]2C(=O)C[C@@]2(C)[C@H]1CC[C@]2(O)C(=O)CO ... 90.2%
O=C(O)CC[C@H]1CC[C@@](c2cc(F)ccc2F)(S(=O)(=O)c2ccc(Cl)cc2)CC1 ... 91.5%
O=C(c1cc(Cc2n[nH]c(=O)c3ccccc23)ccc1F)N1CCN(C(=O)C2CC2)CC1 ... 95.6%
Cc1cc2c(F)c(Oc3ncnn4cc(OC[C@@H](C)O)c(C)c34)ccc2[nH]1 ... 93.6%

I would be grateful if you could share the reported normalised viability for COc1cc2c(Oc3ccc(NC(=O)C4(C(=O)Nc5ccc(F)cc5)CC4)cc3F)ccnc2cc1OCCCN1CCOCC1 .
91.8%

I would be grateful if you could share the reported normalised viability for Cc1c(N)nc([C@H](CC(N)=O)NC[C@H](N)C(N)=O)nc1C(=O)N[C@H](C(=O)N[C@H](C)[C@@H](O)[C@H](C)C(=O)N[C@H](C(=O)NCCc1nc(-c2nc(C(=O)NCCC[S+](C)C)cs2)cs1)[C@@H](C)O)[C@@H](OC1OC(CO)C(O)C(O)C1OC1OC(CO)C(O)C(OC(N)=O)C1O)c1cnc[nH]1 (stereo partly specified) .
117%

----------
- System: HDQ-P1
- test: normalised response (% of control), CellTiter-Glo; higher = more viable cells (100 = DMSO, 0 = benzethonium chloride kill control)
- reported conditions: incubation time: 72 h
measured metric: normalised response (%)
Answer in %, number only, no unit symbol.

NC1(c2ccc(-c3nc4ccn5c(=O)[nH]nc5c4cc3-c3ccccc3)cc2)CCC1 [MK-2206] (10 nM) ... 95.5
COc1cc2c(cc1-c1c(C)noc1C)ncc1[nH]c(=O)n([C@H](C)c3ccccn3)c12 [I-BET151] (100 nM) ... 96

I would be grateful if you could share the reported normalised response for CC(C)C[C@H](NC(=O)[C@H](CCc1ccccc1)NC(=O)CN1CCOCC1)C(=O)N[C@@H](Cc1ccccc1)C(=O)N[C@@H](CC(C)C)C(=O)[C@@]1(C)CO1 [Carfilzomib] (10 nM) .
83.5

I would be grateful if you could share the reported normalised response for Cc1c(N)nc([C@H](CC(N)=O)NC[C@H](N)C(N)=O)nc1C(=O)N[C@H](C(=O)N[C@H](C)[C@@H](O)[C@H](C)C(=O)N[C@H](C(=O)NCCc1nc(-c2nc(C(=O)NCCC[S+](C)C)cs2)cs1)[C@@H](C)O)[C@@H](OC1OC(CO)C(O)C(O)C1OC1OC(CO)C(O)C(OC(N)=O)C1O)c1cnc[nH]1 (some centres not stated) [Bleomycin] (100 nM) .
99.5

I would be grateful if you could share the reported normalised response for CN1CCN(c2nc(C3=C(c4c[nH]c5ccccc45)C(=O)NC3=O)c3ccccc3n2)CC1 [Sotrastaurin] (100 nM) .
96.1

I would be grateful if you could share the reported normalised response for CN1CCc2c(c3ccccc3n2Cc2ccc(C(=O)NO)cc2)C1 [Tubastatin A] (100 nM) .
95.4

I would be grateful if you could share the reported normalised response for CC(C)n1nc(-c2ccc3oc(N)nc3c2)c2c(N)ncnc21 [INK128] (10 nM) .
75

----------
- System: CAL-51
- reported conditions: 72 h
measured metric: EC50, CellTiter-Blue viability (nM)
Answer in nM, number only, no unit symbol.

CC(C)C[C@H](NC(=O)[C@H](CCc1ccccc1)NC(=O)CN1CCOCC1)C(=O)N[C@@H](Cc1ccccc1)C(=O)N[C@@H](CC(C)C)C(=O)[C@@]1(C)CO1 [Carfilzomib] ... 20.2
CC[C@@H]1C(=O)N(C)c2cnc(Nc3ccc(C(=O)N[C@H]4CC[C@H](N5CCN(CC6CC6)CC5)CC4)cc3OC)nc2N1C(C)C [Volasertib] ... 24.8
NC(=O)c1cccc2cn(-c3ccc([C@@H]4CCCNC4)cc3)nc12 [MK-4827] ... 1780

Consider now this further molecule.
Given the entry O=C(c1cc(Cc2n[nH]c(=O)c3ccccc23)ccc1F)N1CCN(C(=O)C2CC2)CC1 [Olaparib] , what EC50, CellTiter-Blue viability was observed with CAL-51?
6590

----------
- System: BT-474
- test: normalised viability (% of control), CellTiter-Blue; higher = more viable cells (about 100 = DMSO control)
- reported conditions: 10000 nM; incubation time: 72 h
Recorded normalised viability by entry
Answer in %, number only, no unit symbol.

Solved entries:
CC/C(=C(\c1ccccc1)c1ccc(OCCN(C)C)cc1)c1ccccc1 [Tamoxifen] ... 77.5
NC(=O)c1cccc2cn(-c3ccc([C@@H]4CCCNC4)cc3)nc12 [MK-4827] ... 92.7
Cc1c(N)nc([C@H](CC(N)=O)NC[C@H](N)C(N)=O)nc1C(=O)N[C@H](C(=O)N[C@H](C)[C@@H](O)[C@H](C)C(=O)N[C@H](C(=O)NCCc1nc(-c2nc(C(=O)NCCC[S+](C)C)cs2)cs1)[C@@H](C)O)[C@@H](OC1OC(CO)C(O)C(O)C1OC1OC(CO)C(O)C(OC(N)=O)C1O)c1cnc[nH]1 (stereo not given in full) [Bleomycin] ... 98
Nc1nc(Cl)nc2c1ncn2[C@@H]1O[C@H](CO)[C@@H](O)[C@@H]1F [Clofarabine] ... 102

Consider now this further compound.
Given the entry CN1CCN(c2nc(C3=C(c4c[nH]c5ccccc45)C(=O)NC3=O)c3ccccc3n2)CC1 [Sotrastaurin] , what normalised viability was observed with BT-474?
94.6
